pIC50: −log10 of the molar value.
Recorded below: pIC50, system Tyrosine-protein phosphatase non-receptor type 2 (Homo sapiens, UniProt P17706).
observationType: pIC50

C=CCOC(=O)N[C@@H](COC(=O)/C(C)=C\C(C)=C\c1csc([C@H](Cc2ccc(OCc3ccccc3)cc2)NC(=O)OC(C)(C)C)n1)C(=O)N1CCC[C@H]1C(=O)OC(C)(C)C = 5.40
CCOC(=O)COC(=O)/C(C)=C\C(C)=C\c1csc([C@H](Cc2ccc(OCc3ccccc3)cc2)NC(=O)[C@H](Cc2c[nH]c3ccccc23)NC(C)=O)n1 = 5.05
CCOC(=O)COC(=O)/C(C)=C\C(C)=C\c1csc([C@H](Cc2ccc(OCc3ccccc3)cc2)NC(=O)CCCc2c[nH]c3ccccc23)n1 = 4.90
CCOC(=O)COC(=O)/C(C)=C\C(C)=C\c1csc([C@H](Cc2ccc(OCc3ccccc3)cc2)NC(=O)CCc2c[nH]c3ccccc23)n1 = 4.89

* * *

target: Tyrosine-protein phosphatase non-receptor type 11 (Homo sapiens, UniProt Q06124)
pIC50: −log10 of the molar value.
observationType: pIC50

Query for Tyrosine-protein phosphatase non-receptor type 11 (Homo sapiens, UniProt Q06124): what pIC50 does the record show for CCOC(=O)COC(=O)/C(C)=C\C(C)=C\c1csc([C@H](Cc2ccc(OCc3ccccc3)cc2)NC(=O)CCCc2c[nH]c3ccccc23)n1 ?
< 4.70

* * *

Molecular target: Tyrosine-protein phosphatase non-receptor type 1 (Homo sapiens, UniProt P18031)
Sequence (P18031 whole entry): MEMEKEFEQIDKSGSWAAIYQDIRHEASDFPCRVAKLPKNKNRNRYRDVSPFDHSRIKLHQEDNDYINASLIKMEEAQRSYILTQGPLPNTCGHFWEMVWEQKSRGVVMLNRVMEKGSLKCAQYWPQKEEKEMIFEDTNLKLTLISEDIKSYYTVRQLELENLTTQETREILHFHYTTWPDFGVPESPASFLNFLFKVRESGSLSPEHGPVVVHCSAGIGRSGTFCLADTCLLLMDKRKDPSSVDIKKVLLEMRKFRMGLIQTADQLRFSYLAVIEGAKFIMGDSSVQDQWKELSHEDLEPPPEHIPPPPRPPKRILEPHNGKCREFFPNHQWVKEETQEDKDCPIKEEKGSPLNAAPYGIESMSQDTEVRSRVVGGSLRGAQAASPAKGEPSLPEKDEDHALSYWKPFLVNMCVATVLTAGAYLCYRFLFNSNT
pIC50: −log10 of the molar value.
observationType: pIC50

CCOC(=O)/C(C)=C\C(C)=C\c1csc([C@H](Cc2ccc(OCc3ccccc3)cc2)NC(=O)C2CCCC2)n1 = 4.75
COC(=O)CCNC(=O)/C(C)=C\C(C)=C\c1csc(C(Cc2ccc(OCc3ccccc3)cc2)NC(=O)OC(C)(C)C)n1 (single isomer, unassigned) = 4.80
CCOC(=O)/C(C)=C\C(C)=C\c1csc([C@H](Cc2ccc(OCc3ccccc3)cc2)NC(=O)c2cc3ccccc3s2)n1 = 5.03
CCOC(=O)COC(=O)/C(C)=C\C(C)=C\c1csc([C@H](Cc2ccc(OCc3ccccc3)cc2)NC(=O)[C@H](Cc2c[nH]c3ccccc23)NC(C)=O)n1 = 5.68
CCOC(=O)CNC(=O)/C(C)=C\C(C)=C\c1csc(C(Cc2ccc(OCc3ccccc3)cc2)NC(=O)OC(C)(C)C)n1 (single isomer, unassigned) = 4.91
C=CCOC(=O)N[C@@H](COC(=O)/C(C)=C\C(C)=C\c1csc([C@H](Cc2ccc(OCc3ccccc3)cc2)NC(=O)OC(C)(C)C)n1)C(=O)N1CCC[C@H]1C(=O)OC(C)(C)C = 5.35
CCCCC(=O)N[C@@H](Cc1ccc(OCc2ccccc2)cc1)c1nc(/C=C(C)/C=C(/C)C(=O)OCC)cs1 = 4.94

P = CCOC(=O)COC(=O)/C(C)=C\C(C)=C\c1csc([C@H](Cc2ccc(OCc3ccccc3)cc2)NC(=O)CCCc2c[nH]c3ccccc23)n1
Q = CCOC(=O)COC(=O)/C(C)=C\C(C)=C\c1csc(C(Cc2ccc(OCc3ccccc3)cc2)NC(=O)OC(C)(C)C)n1 (single isomer, unassigned)
Pick one: P or Q . Which has the bigger pIC50 number? State your choice using its label.
P
(P: 5.52, Q: 5.15)

* * *

Recorded below: IC50, system M-phase inducer phosphatase 2 (Homo sapiens).
observationType: IC50 (µM)

CCOC(=O)COC(=O)/C(C)=C\C(C)=C\c1csc([C@H](Cc2ccc(OCc3ccccc3)cc2)NC(=O)[C@H](Cc2c[nH]c3ccccc23)NC(C)=O)n1 = 2.4
C/C(=C/C(C)=C/c1csc([C@H](Cc2ccc(OCc3ccccc3)cc2)NC(=O)[C@H](Cc2c[nH]c3ccccc23)NC(=O)OC(C)(C)C)n1)C(=O)OCC(=O)O = 3.38
CCOC(=O)COC(=O)/C(C)=C\C(C)=C\c1csc([C@H](Cc2ccc(OCc3ccccc3)cc2)NC(=O)Cc2c[nH]c3ccccc23)n1 = 2.83
CCOC(=O)COC(=O)/C(C)=C\C(C)=C\c1csc([C@H](Cc2ccc(OCc3ccccc3)cc2)NC(=O)CCCc2c[nH]c3ccccc23)n1 = 2.55

* * *

The reader will find reported pIC50 values listed item by item below.
Target: Tyrosine-protein phosphatase non-receptor type 1 (Homo sapiens)
Sequence (P18031 whole entry): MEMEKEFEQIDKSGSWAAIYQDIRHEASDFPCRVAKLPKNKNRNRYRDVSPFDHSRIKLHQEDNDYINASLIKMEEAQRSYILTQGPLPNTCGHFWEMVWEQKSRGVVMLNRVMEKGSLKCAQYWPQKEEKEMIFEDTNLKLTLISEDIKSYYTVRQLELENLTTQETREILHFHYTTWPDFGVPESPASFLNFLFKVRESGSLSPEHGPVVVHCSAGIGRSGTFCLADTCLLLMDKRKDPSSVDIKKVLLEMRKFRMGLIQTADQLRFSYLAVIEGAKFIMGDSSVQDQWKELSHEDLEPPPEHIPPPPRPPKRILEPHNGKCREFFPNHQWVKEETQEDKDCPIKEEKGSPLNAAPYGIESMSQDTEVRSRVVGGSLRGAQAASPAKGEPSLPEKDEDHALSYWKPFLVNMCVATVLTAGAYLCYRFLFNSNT
pIC50: −log10 of the molar value.

CCOC(=O)/C(C)=C\c1csc([C@H](Cc2ccc(OCc3ccccc3)cc2)NC(=O)C2CCCCC2)n1 = < 4.40
CCOC(=O)c1csc([C@H](Cc2ccc(OCc3ccccc3)cc2)NC(=O)C2CCCCC2)n1 = < 4.40
CCOC(=O)/C(C)=C/c1csc([C@H](Cc2ccc(OCc3ccccc3)cc2)NC(=O)C2CCCCC2)n1 = < 4.40
CCOC(=O)/C(C)=C\C(C)=C\c1csc([C@H](Cc2ccc(OCc3ccccc3)cc2)NC(=O)c2ccccc2)n1 = < 4.44

Lab note: next compound to report on.
Which pIC50 is reported for this compound? CCOC(=O)C(C)CC(C)Cc1csc([C@H](Cc2ccc(OCc3ccccc3)cc2)NC(=O)C2CCCCC2)n1 (stereo not given in full)
< 4.40
